Below is a list of entries, each paired with its recorded DC50 value.
Target: TYK2 (Homo sapiens)
Sequence (P29597 whole entry): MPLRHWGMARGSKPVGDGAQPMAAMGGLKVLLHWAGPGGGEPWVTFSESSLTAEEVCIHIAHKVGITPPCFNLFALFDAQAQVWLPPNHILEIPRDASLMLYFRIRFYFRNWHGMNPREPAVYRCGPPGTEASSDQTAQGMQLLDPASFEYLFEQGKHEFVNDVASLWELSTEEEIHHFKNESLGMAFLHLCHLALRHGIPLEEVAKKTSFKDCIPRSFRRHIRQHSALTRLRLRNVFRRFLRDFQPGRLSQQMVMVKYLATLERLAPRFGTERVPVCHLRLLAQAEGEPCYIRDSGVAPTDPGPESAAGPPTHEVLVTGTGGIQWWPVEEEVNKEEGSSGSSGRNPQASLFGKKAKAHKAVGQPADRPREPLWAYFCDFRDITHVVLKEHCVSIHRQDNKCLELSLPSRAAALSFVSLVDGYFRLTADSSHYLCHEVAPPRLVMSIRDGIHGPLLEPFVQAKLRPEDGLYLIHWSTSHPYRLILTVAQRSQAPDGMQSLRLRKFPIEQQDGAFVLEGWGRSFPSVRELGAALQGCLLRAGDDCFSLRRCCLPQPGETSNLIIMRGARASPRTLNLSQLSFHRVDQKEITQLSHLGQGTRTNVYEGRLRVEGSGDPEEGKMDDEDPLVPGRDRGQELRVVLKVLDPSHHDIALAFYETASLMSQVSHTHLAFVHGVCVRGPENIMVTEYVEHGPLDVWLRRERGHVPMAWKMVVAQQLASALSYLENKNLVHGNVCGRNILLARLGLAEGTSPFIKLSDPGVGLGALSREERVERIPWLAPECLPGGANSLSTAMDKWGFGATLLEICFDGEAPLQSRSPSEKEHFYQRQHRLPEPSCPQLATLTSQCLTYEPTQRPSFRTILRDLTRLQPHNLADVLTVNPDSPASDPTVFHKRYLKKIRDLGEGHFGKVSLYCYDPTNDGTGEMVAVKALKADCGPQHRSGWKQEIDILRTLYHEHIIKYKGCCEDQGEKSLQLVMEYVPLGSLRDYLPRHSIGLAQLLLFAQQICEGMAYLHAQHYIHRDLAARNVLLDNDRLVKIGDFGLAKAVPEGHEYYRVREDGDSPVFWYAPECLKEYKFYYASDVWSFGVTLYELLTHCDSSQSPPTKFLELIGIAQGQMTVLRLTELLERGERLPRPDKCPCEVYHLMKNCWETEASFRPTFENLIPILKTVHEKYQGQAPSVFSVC
Test: TYK2 degradation MSD assay in OCI-LY10 cells
Type: cell-based
Set-up: endogenous in cells; host or cells: EBV-B cells
Conditions: 4 to 24 hours incubation, read-out: TYK2 MSD DC50 rating in OCI-LY10
Procedure: Example 3. TYK2 Degradation MSD Assay in EBV-B, OCI-LY10, and Human PBMC Cells Degradation of TYK2 in cells was quantitatively measured using Meso Scale Discovery (MSD) technology. […] The assay plates were then incubated at room temperature for 1 hour, washed 3 times with 150 μl/well TBST buffer, and 150 μl/well MSD reading buffer (MSD, R92TC-2) were added. The plates were then analyzed by an MSD reader. […]

Request: # value lookup — system TYK2 (Homo sapiens), readout DC50, item CNC(=O)c1cnc(Nc2ccc(C3CN(Cc4cccc5c4n(C)c(=O)n5C4CCC(=O)NC4=O)C3)cn2)cc1Nc1cccc(-c2ncc(F)cn2)c1OC (stereo not shown) [Example K703]
Result: > 100 nM

Request: # value lookup — system TYK2 (Homo sapiens), readout DC50, item CNC(=O)c1cnc(Nc2ccc(C(=O)N(C)C3CCN(c4ccc5c(c4)n(C)c(=O)n5C4CCC(=O)NC4=O)CC3)cn2)cc1Nc1cccc(-c2ncc(F)cn2)c1OC (stereo not shown) [Example K178]
Result: > 100 nM

Request: # value lookup — system TYK2 (Homo sapiens), readout DC50, item CNc1cc(N2CCc3c(-c4ccc(CN5CC6(C5)CN(c5ccc(-c7ccc8c(c7)n(C)c(=O)n8C7CCC(=O)NC7=O)cc5)C6)cn4)cccc32)nn2c(C(=O)N[C@@H]3C[C@@H]3F)cnc12 (stereo partly shown) [Example K574]
Result: 1 to 10 nM

Request: # value lookup — system TYK2 (Homo sapiens), readout DC50, item CNC(=O)c1cnc(Nc2ccc(CN3CCN(c4cccc5c4n(C)c(=O)n5C4CCC(=O)NC4=O)CC3)cn2)cc1Nc1cccc(-c2ncc(F)cn2)c1OC (stereo not shown) [Example K173]
Result: > 100 nM

Request: # value lookup — system TYK2 (Homo sapiens), readout DC50, item CNc1cc(Nc2cccn(-c3ccc(C(=O)N4CC(N5CCN(CCc6ccc7c(c6)n(C)c(=O)n7C6CCC(=O)NC6=O)CC5)C4)cn3)c2=O)nn2c(C(=O)N[C@@H]3C[C@@H]3F)cnc12 (stereo partly shown) [Example K429]
Result: < 1 nM

Request: # value lookup — system TYK2 (Homo sapiens), readout DC50, item CCNC(=O)c1cnc(Nc2ccc(C(=O)N(C)C3CCN(c4cccc5c4n(C)c(=O)n5C4CCC(=O)NC4=O)CC3)cn2)cc1Nc1cccc(-c2ncc(F)cn2)c1OC (stereo not shown) [Example K169]
Result: > 100 nM

Request: # value lookup — system TYK2 (Homo sapiens), readout DC50, item CNc1cc(Nc2cccn(-c3ccc(C(=O)NCCCCCCCCCc4cccc5c4n(C)c(=O)n5C4CCC(=O)NC4=O)cn3)c2=O)nn2c(C(=O)N[C@@H]3C[C@@H]3F)cnc12 (stereo partly shown) [Example K266]
Result: > 100 nM

Request: # value lookup — system TYK2 (Homo sapiens), readout DC50, item CNC(=O)c1cnc(Nc2ccc(CN3CC4(CCN(c5cccc6c5n(C)c(=O)n6C5CCC(=O)NC5=O)CC4)C3)cn2)cc1Nc1cccc(-c2ncc(F)cn2)c1OC (stereo not shown) [Example K150]
Result: > 100 nM

New cases:
Request: # value lookup — system TYK2 (Homo sapiens), readout DC50, item CNc1cc(Nc2cccn(-c3ccc(C(=O)NCCCCCCCCc4cncc(N5CCC[C@H](C(=O)Nc6ccc(=O)n(CC(=O)OC)c6)C5)c4)cn3)c2=O)nn2c(C(=O)N[C@@H]3C[C@@H]3F)cnc12 [Example K599]
Result: > 100 nM

Request: # value lookup — system TYK2 (Homo sapiens), readout DC50, item CNC(=O)c1cnc(Nc2ccc(CN3CCCC4(C3)CN(c3ncc(C#Cc5ccc6c(c5)n(C)c(=O)n6C5CCC(=O)NC5=O)cn3)C4)cn2)cc1Nc1cccc(-c2ncc(F)cn2)c1OC (stereo not shown) [Example K145]
Result: > 100 nM

Where do the numbers come from? From patent US20250051338A1.
